Ref: patent US9333197B2

EXPERIMENT_NOTES: Rat pharmacokinetics, 1 mg/kg IV infusion and 5.0 mg/kg PO
Type: in vivo
EXPERIMENTAL_CONDITIONS: Sprague-Dawley, rat, plasma; 5.0 mg/kg PO, male SD rats; read-out: oral bioavailability (% F) in rats
PROPERTY_LABEL: bioavailability (%)
Answers are plain numbers, in %.

{"SMI": "CC(C)n1cnnc1-c1cccc(NC(=O)c2cccc(-n3cnc(C4CC4)c3)c2)n1", "UNITS_TEXT": "%", "bioavailability": 11}

[ask] Which bioavailability value is on record for Cc1ccc(C(=O)Nc2cccc(-c3nncn3C3CC3)n2)cc1-n1cnc(C2CC2)c1 ?
[reply] 50

====

EXPERIMENT_NOTES: Rat pharmacokinetics, 1 mg/kg IV infusion and 5.0 mg/kg PO
Format: in vivo
EXPERIMENTAL_CONDITIONS: rat, plasma; 1 mg/kg IV infusion, male SD rats; read-out: Vss in rats
PROPERTY_LABEL: Vd

[ask] Which Vd value is on record for Cc1cc(F)c(C(=O)Nc2cccc(-c3nncn3C(C)C)n2)cc1-n1cnc(C2CC2)c1 ?
[reply] 0.55 L/kg

====

EXPERIMENT_NOTES: Rat pharmacokinetics, 1 mg/kg IV infusion and 5.0 mg/kg PO
Type: in vivo
EXPERIMENTAL_CONDITIONS: Sprague-Dawley, rat, plasma; 1 mg/kg IV infusion, male SD rats; read-out: Vss in rats
PROPERTY_LABEL: Vd (L/kg)
One number for each entry, in L/kg.

{"SMI": "CC(C)n1cnnc1-c1cccc(NC(=O)c2cccc(-n3cnc(C4CC4)c3)c2)n1", "Vd (L/kg)": 0.17}

// switching to the query compound
[ask] Which Vd value is on record for Cc1ccc(C(=O)Nc2cccc(-c3nncn3C3CC3)n2)cc1-n1cnc(C2CC2)c1 ?
[reply] 0.54

====

EXPERIMENT_NOTES: Rat pharmacokinetics, 1 mg/kg IV infusion and 5.0 mg/kg PO
Type: in vivo
EXPERIMENTAL_CONDITIONS: rat, plasma; 5.0 mg/kg PO, male SD rats; read-out: oral bioavailability (% F) in rats
PROPERTY_LABEL: bioavailability (%)
Give bare numbers, in %.

[ask] Which bioavailability value is on record for Cc1cc(F)c(C(=O)Nc2cccc(-c3nncn3C(C)C)n2)cc1-n1cnc(C2CC2)c1 ?
[reply] 75

====

ASSAY_TARGET: UniProtKB A0A8I6AEL0
Sequence (A0A8I6AEL0 1-1381): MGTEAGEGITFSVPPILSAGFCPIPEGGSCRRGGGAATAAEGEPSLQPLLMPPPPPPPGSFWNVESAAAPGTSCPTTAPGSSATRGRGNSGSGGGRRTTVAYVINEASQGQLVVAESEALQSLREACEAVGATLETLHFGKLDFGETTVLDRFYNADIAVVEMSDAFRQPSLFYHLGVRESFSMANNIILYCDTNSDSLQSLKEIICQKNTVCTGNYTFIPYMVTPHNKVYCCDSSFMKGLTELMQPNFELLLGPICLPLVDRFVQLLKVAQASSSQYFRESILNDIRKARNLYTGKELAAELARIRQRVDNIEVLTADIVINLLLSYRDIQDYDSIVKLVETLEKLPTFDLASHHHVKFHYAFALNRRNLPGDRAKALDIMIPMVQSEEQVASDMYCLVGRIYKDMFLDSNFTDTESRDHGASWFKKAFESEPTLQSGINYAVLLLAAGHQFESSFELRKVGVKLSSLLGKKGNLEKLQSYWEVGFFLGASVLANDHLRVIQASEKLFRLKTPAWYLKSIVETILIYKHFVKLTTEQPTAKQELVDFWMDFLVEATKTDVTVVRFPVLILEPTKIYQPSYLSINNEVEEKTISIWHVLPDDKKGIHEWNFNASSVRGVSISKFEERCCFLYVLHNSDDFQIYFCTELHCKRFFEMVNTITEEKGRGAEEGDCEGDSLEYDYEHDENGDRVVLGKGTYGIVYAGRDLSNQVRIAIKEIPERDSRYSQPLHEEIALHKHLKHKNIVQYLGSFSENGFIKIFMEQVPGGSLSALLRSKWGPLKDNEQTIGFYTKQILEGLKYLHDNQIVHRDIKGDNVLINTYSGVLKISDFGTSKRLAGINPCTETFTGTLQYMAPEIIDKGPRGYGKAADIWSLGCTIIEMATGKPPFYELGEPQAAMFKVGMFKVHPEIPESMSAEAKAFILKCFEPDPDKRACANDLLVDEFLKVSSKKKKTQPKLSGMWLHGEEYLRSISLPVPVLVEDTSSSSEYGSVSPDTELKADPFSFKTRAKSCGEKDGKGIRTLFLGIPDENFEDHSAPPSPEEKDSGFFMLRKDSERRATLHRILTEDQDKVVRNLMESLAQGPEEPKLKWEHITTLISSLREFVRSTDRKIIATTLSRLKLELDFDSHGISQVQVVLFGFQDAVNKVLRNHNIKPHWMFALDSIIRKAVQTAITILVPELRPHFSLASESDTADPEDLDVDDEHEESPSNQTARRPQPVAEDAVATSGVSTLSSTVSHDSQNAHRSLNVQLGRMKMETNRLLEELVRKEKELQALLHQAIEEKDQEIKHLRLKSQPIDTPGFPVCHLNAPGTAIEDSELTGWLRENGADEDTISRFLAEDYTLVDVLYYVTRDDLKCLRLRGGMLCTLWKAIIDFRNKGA
EXPERIMENT_NOTES: ASK1 293 cell-based assay (cellular EC50), AP-1:luciferase reporter
EXPERIMENTAL_CONDITIONS: protein binding adjusted EC50; read-out: PBadj EC50
PROPERTY_LABEL: pEC50
Answers are plain numbers, as −log10 of the molar value.

[ask] Which pEC50 value is on record for Cc1ccc(C(=O)Nc2cccc(-c3nncn3C3CC3)n2)cc1-n1cnc(C2CC2)c1 [Compound B] ?
[reply] 6.25

====

pIC50, CYP3A4 (Homo sapiens (Human)): measured values
Numbers only, as −log10 of the molar value.

{"SMI": "Cc1ccc(C(=O)Nc2cccc(-c3nncn3C3CC3)n2)cc1-n1cnc(C2CC2)c1", "pIC50": 5.40}

// switching to the query molecule
[ask] Which pIC50 value is on record for CC(C)n1cnnc1-c1cccc(NC(=O)c2cccc(-n3cnc(C4CC4)c3)c2)n1 ?
[reply] 5.96
